# TESTED ON: ligand binding domain of the chemoreceptor ECA_RS12390 (PacP-LBD, R1, WP_011094075.1) (Pectobacterium atrosepticum, UniProt Q6D464)
# Sequence (Q6D464 entry or part of it): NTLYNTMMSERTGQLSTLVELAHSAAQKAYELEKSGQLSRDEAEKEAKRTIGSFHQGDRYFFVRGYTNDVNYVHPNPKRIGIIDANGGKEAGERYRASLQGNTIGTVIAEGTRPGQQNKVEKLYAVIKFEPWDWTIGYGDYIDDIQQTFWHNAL
# PROTOCOL DETAILS: ITC binding to PacP-LBD
# RUN PARAMETERS: 15 °C, Nb = no binding

- COMPOUND: "CC(=O)C(=O)O [Pyruvate]"
  KD: "did not bind"
- COMPOUND: "CC(O)C(=O)O (stereo not shown) [lactate]"
  KD: "did not bind"

----------
# TESTED ON: LBD of chemoreceptor R5 (WP_028444678.1)
# PROTOCOL DETAILS: ITC binding to R5-LBD
# RUN PARAMETERS: 20 °C, Nb = no binding
API: label(entry) gives y if the entry's Kd is strictly smaller than 20 µM; on equality or larger values it gives n.

Please indicate whether the reported Kd of O=C(O)CC(O)C(=O)O (centres unmarked) [Malate] is strictly below 20 µM.
n

Please indicate whether the reported Kd of O=C(O)CC(O)(CC(=O)O)C(=O)O [Citrate] is strictly below 20 µM.
y

Please indicate whether the reported Kd of O=C(O)/C=C/C(=O)O [Fumarate] is strictly below 20 µM.
n

Please indicate whether the reported Kd of O=C(O)CC(CC(=O)O)C(=O)O [Tricarballylate] is strictly below 20 µM.
y

Please indicate whether the reported Kd of O=C(O)CCC(=O)O [Succinate] is strictly below 20 µM.
n

----------
# TESTED ON: LBD of chemoreceptor R3 (WP_006464688.1) (Herbaspirillum frisingense, UniProt A0ABU1PC34)
# Sequence (A0ABU1PC34 entry or part of it): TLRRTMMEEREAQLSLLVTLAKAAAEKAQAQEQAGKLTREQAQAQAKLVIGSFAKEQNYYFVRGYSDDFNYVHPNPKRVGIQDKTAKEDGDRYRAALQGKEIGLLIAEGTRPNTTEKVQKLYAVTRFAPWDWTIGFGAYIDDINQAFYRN
# PROTOCOL DETAILS: ITC binding to R3-LBD
# RUN PARAMETERS: 20 °C, Nb = no binding
ENDPOINT LABEL: KD

# annotated cases, reported KD shown
- COMPOUND: "O=CC(O)COP(=O)(O)O (centres unmarked) [glyceraldehyde 3-phosphate]"
  TESTED ON: "LBD of chemoreceptor R3 (WP_006464688.1) (Herbaspirillum frisingense, UniProt A0ABU1PC34)"
  KD: "Nb"
- COMPOUND: "O=C(CO)COP(=O)(O)O [dihydroxyacetone phosphate]"
  TESTED ON: "LBD of chemoreceptor R3 (WP_006464688.1) (Herbaspirillum frisingense, UniProt A0ABU1PC34)"
  KD: "bound"
- COMPOUND: "O=P(O)(O)OC(CO)CO [glycerol 2-phosphate]"
  TESTED ON: "LBD of chemoreceptor R3 (WP_006464688.1) (Herbaspirillum frisingense, UniProt A0ABU1PC34)"
  KD: "bound"
- COMPOUND: "O=P(O)(O)OCC(O)CO (centres unmarked) [glycerol 3-phosphate]"
  TESTED ON: "LBD of chemoreceptor R3 (WP_006464688.1) (Herbaspirillum frisingense, UniProt A0ABU1PC34)"
  KD: "bound"

Quote KD reported for O=C(O)[C@@H](O)COP(=O)(O)O [3-phosphoglycerate] please.
Nb

----------
ENDPOINT LABEL: pKd
On this scale, pKd is minus log10 of a concentration expressed in M (mol/L).

Supply pKd measured with UniProt:A0ABU1PC34 for O=P(O)(O)OCC(O)CO (stereo not drawn) [glycerol 3-phosphate] .
4.48

Supply pKd measured with UniProt:A0ABU1PC34 for O=C(CO)COP(=O)(O)O [dihydroxyacetone phosphate] .
3.96

Supply pKd measured with UniProt:A0ABU1PC34 for O=P(O)(O)OC(CO)CO [glycerol 2-phosphate] .
4.44

Origin of values: paper PMC12395807
